Test: label from the status in PepcDB records;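 further: failed if final PepcDB status was selected cloned or expressed and not failed if soluble or beyond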
recorded_endpoint: protein production

Below, each entry is followed by its recorded protein production result.
sequence_record | protein production
MTMDNFSIRPMKRSELDVVIDWAAIEGWNPGIYDAECFYQADQCGFFVGELNNELVASISAVAYSQHFAVIGFYIVKEQFRGRGFGMKMWRTAMAYLGSERNISLDGVIAQQENYKKSGFQIAYRHIRYQV | failed
MSLTLLKGRRKVDTIKVGILGYGLSGSVFHGPLLDVLDEYQISKIMTSRTEEVKRDFPDAEVVHELEEITNDPAIELVIVTTPSGLHYEHTMACIQAGKHVVMEKPMTATAEEGETLKRAADEKGVLLSVYHNRRWDNDFLTIKKLISEGSLEDINTYQVSYNRYRPEVQARWREKEGTATGTLYDLGSHIIDQTLHLFGMPKAVTANVMAQRENAETVDYFHLTLDYGKLQAILYGGSIVPANGPRYQIHGKDSSFIKYGIDGQEDALRAGRKPEDDSWGADVPEFYGKLTTIRGSDKKTETIPSVNGSYLTYYRKIAESIREGAALPVTAEEGINVIRIIEAAMESSKEKRTIMLEHEGHHHHHH | not failed
MFRVTGTLSAASSPAVAAASFSAALRLSITPTLAIASPPHLRWFSKFSRQFLGGRISSLRPRIPSPCPIRLSGFPALKMRASFSSGSSGSSASREILVQHLLVKNNDVELFAELQKKFLDGEEMSDLAAEYSICPSKKDGGILGWVKLGQMVPEFEEAAFKAELNQVVRCRTQFGLHLLQVLSEREPVKDIQVEELHSKMQDPVFMDEAQLIDVREPNEIEIASLPGFKVFPLRQFGTWAPDITSKLNPEKDTFVLCKVGGRSMQVANWLQSQGFKSVYNITGGIQAYSLKVDPSIPTY | failed
MNYKELLEFNDYAMDLTIRMAHHSTAIENNPLSLAETISILTTEYIPREMPQRAFFEVKNYQNMLFFLLENLNKGQSVDSFFIRELHGILMNFLLPNKGAFKTTDNTILGASFETTPIFKCLWL | failed

**Query** Any idea what protein production was measured for MKSQNPSKRNLPGVIIAYFLIYVVWGSTYFFIGVALKDFSPFLLGALRFTTAGLILLGICYLRGEQIFKKSLVKRSAVSGIVLLFVDMAVVMLAQRYLTSSLVAIIASSTALWILLLDVPMWRTNFRNPLTIAGGGIGFGGVVMLYAEQLNAEWLHPQSERGILLLVFGCISWALGTLYAKYRSSREEEVNAFAGSAWQMLFASVMFWICAVVNGDVREADLSTVSVTSWFSLLYLISFGSLLAYSAYVWLLKVRPAAEVGTHAYVNPFIAVLLGVSFGNEQVTFVQLSGLLVILLGVMLISRKRNKMKSTAISR ?
**Result** failed

---

Experiment: label from the status in PepcDB records
recorded_endpoint: protein production

sequence_record | observed_result
MKLIWSPETASKAYIDTVKSCENLGTPGAAELVAAMAAGWNANLIVETWSEGETIAISVGLNIASRHTNGRHICIVPNARSQTAYLQAMAEQSCSNLPETIIMNEEGEELEHTMQTLQGIDFLVVDWDQKDFAANVLRNAVFGSRGAVVVCRSGYRRSTSCFSWTKAFSDRNVVRTVTLPVSGGLEIAHVAAARSSGKSDNNSNKRKWIKHFDQRSGEEHVIRK | failed
MKSHAEVVKTRHHEYSLVFPVIALVVLYIWGNSQDFIAILGINAVALAGILFSAFSVVRHADVLAHRLGEPYGSLILSLSVVILEVSLISALMATGDAGPDLMRDTLYSIIVIVTGGLVGFALLLGGRKFATQYVNLSGIKQYLMAIFPLAVIVLVFPSALPDGNFSVTQSLIVAAISAAMYGVFLLIQTRTHQSLFVYEHEDEGDGDDPHHGKPSAHSSLWHTGWLLVHLIAVIAVTKTNSMPLETLLTEMNAPTQFTGFLVALLILSPEGLGAIRAVLKNQVQRAMNLFFGSVLATISLTVPTVTIIAMITGRTLNFGLDMPHIVVMLSVLVLCHITFSTGRTNVLSGSAHLALFAAYLITITL | failed
